Listed here are sequences together with their documented protein stability index.
Test: protein stability index of a GFP-peptide fusion (yeast GPS) (PSI 1-4); higher = more stable; sorted into four equal gates, so the index is relative within each strain
Conditions: doa10∆
assay.readout: protein stability index

{"residue.string": "TFEIPQAHEIVIPSYSK [SWI3]", "recorded.number": 2.43}
{"residue.string": "LSALFTISSKPDILATD [YCS4]", "recorded.number": 2.32}
{"residue.string": "IRPLSKPMTAYARADTH [RRP6]", "recorded.number": 2.74}
{"residue.string": "NSSSSTPNTNSNSTPNA [SWI1]", "recorded.number": 2.96}
{"residue.string": "KPLKKGSADIGASVISL [SIR4]", "recorded.number": 3.09}
{"residue.string": "KDERDTWIHSEIEELKS [SMC3]", "recorded.number": 3.16}
{"residue.string": "QLYHLEQQKEELTDKLS [SMC1]", "recorded.number": 2.23}
{"residue.string": "TLAITTVTNSKFRSSIL [RPN2]", "recorded.number": 2.19}
{"residue.string": "KCIPKKGTVFQFEIPIS [POP4]", "recorded.number": 1.44}
{"residue.string": "KRIKPNTEITQKSSKEN [ECM29]", "recorded.number": 2.81}
{"residue.string": "GDFLDFQVHERLAPLIK [ARP7]", "recorded.number": 3.29}
{"residue.string": "KCIKYSEKLITKYFEPT [ECM29]", "recorded.number": 2.63}
{"residue.string": "HQQRMSRTAADILLRLC [YCG1]", "recorded.number": 2.48}
{"residue.string": "PRVSNQSNEDTFLPSYM [RRI2]", "recorded.number": 3.07}
{"residue.string": "FQAHEITSFLLSKMENV [NAS6]", "recorded.number": 1.79}

###

protein stability index values for the sequences below.
Test: protein stability index of a GFP-peptide fusion (yeast GPS) (PSI 1-4); higher = more stable; sorted into four equal gates, so the index is relative within each strain
Conditions: san1∆
assay.readout: protein stability index

{"residue.string": "PSRTRETATSERNASEV [GRR1]", "recorded.number": 2.86}
{"residue.string": "TGTGLQDENIGLSMLAK [RPC31]", "recorded.number": 3.05}
{"residue.string": "AFHLHCINKWIKTRDAC [HRT1]", "recorded.number": 1.66}
{"residue.string": "GEDSTKPLGPCDVFWVQ [POP1]", "recorded.number": 3.17}
{"residue.string": "NRYAYVLSSLMFANMKV [LRP1]", "recorded.number": 2.08}
{"residue.string": "EPKQKANAVQNNNGNSA [SRP21]", "recorded.number": 2.85}
{"residue.string": "GNYVIIIGHNPDENKTR [RPL2A]", "recorded.number": 3.12}
{"residue.string": "RKWMEEKADYERELISN [YIL149C/MLP2]", "recorded.number": 3.11}
{"residue.string": "QPASYHSVQETNKISPK [SSN2]", "recorded.number": 3.08}
{"residue.string": "DEEELGQRTAYHSKRDA [RPB2]", "recorded.number": 3.31}
{"residue.string": "DLLVIDSHKRIPDMSKN [SNU114]", "recorded.number": 2.93}
{"residue.string": "LTQGINGKEVPLAKIYL [MED1]", "recorded.number": 2.32}
{"residue.string": "GGVPTTSFGQPQSAPNQ [YOR098C/NUP1]", "recorded.number": 2.36}
{"residue.string": "YNTSILEFRWLTSSKSV [SIN4]", "recorded.number": 1.96}

Values compiled from the supplement of paper PMC9732359.
